# Target or system: hERG (IKr) (Homo sapiens)
# Sequence (Q12809 whole entry): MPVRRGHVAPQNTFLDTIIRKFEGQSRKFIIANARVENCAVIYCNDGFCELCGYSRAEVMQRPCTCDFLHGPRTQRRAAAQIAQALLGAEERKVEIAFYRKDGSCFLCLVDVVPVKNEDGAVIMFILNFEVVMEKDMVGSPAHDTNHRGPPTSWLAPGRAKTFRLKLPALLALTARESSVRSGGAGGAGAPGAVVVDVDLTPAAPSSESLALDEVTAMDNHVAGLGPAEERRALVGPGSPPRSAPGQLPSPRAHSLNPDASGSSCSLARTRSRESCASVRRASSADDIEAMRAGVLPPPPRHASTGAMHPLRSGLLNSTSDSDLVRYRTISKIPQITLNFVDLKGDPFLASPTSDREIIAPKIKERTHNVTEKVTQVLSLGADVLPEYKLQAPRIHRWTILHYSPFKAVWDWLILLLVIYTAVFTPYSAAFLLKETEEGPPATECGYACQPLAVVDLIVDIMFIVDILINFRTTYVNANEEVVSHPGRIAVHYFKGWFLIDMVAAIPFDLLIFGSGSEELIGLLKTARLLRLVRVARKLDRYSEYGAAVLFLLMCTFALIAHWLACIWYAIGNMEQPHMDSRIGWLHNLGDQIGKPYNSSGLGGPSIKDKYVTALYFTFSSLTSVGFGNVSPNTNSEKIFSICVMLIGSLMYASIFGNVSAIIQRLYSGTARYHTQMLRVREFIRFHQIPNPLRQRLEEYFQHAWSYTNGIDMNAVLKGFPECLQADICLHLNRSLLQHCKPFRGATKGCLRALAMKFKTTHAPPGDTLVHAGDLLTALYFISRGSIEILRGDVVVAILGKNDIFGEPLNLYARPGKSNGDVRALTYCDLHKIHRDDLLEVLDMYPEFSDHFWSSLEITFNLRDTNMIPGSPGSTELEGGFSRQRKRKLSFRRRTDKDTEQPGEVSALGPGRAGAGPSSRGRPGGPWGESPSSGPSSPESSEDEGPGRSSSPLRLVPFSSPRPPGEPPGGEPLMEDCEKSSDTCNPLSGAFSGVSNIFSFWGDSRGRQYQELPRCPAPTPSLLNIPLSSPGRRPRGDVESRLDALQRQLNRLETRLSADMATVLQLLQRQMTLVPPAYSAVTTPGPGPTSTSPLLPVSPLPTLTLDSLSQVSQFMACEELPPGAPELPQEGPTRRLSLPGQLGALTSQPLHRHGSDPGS
# Experiment notes: whole-cell patch clamp, tail current inhibition
Property name: pIC50
FYI, pIC50 means -log10 of a concentration in mol per litre.

Q) # return recorded pIC50 for input CCN(CCO)CCCC(C)Nc1ccnc2cc(Cl)ccc12 (stereo not shown) [hydroxychloroquine]
A) 5.00

---

# Target or system: Kir2.1 (IK1) (Homo sapiens, UniProt P63252)
# Sequence (P63252 whole entry): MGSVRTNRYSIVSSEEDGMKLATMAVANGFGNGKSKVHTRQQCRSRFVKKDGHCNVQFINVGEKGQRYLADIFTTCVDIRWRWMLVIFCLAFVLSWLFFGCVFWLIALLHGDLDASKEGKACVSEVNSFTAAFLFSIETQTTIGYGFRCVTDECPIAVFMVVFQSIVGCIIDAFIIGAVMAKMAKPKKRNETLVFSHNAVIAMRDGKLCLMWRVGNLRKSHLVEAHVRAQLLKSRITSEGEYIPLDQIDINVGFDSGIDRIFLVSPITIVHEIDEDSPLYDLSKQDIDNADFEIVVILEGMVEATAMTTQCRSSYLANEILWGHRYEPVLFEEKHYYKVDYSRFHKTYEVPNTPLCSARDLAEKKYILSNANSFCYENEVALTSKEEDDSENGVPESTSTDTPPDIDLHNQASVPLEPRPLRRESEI
# Experiment notes: whole-cell patch clamp, pulse current inhibition
Property name: pIC50
FYI, pIC50 means -log10 of a concentration in mol per litre.

Q) Report pIC50 from Kir2.1 (IK1) (Homo sapiens, UniProt P63252) testing of CCN(CCO)CCCC(C)Nc1ccnc2cc(Cl)ccc12 (stereo not shown) [hydroxychloroquine]
A) 4.47
